- Tested on: NCI-H23 lung
- assay.details: NCI-60 one-dose screen, 48 h
- conditions.used: 10 µM unless noted
- Protocol: Growth inhibition of the NCI-H23 human Non-Small Cell Lung tumor cell line is measured as a screen for anti-cancer activity. Cells are grown in 96 well plates and exposed to the test compound for 48 hours. Compounds are tested at a single concentration, which is 10^-5 M for most compounds. The reported endpoint is percent growth (GI% or GIPRCNT), where numbers from 0 - 100% represent growth inhibition, and numbers from -100% - 0 represent cell death. […]
About 83,000 compounds went through this panel and 20% of them were active in at least one assay; those are over-represented in the sample as a whole. Activity calls are given as the source filed them. Rule for the calls: active = growth percent below 10; inactive = the rest.
Valid outcomes are listed here; reply with one: t for active, f for inactive

Consider the following illustrative entries.
INSERT INTO assay_data (molecule, category) VALUES
  ('NC(N)=N/N=C/c1ccc(-c2ccc(-c3ccc(Cl)cn3)s2)cc1', 'f'),
  ('COc1cnc2c(c1)C(=O)c1c-2n(CCCNC2=NCCS2)c(=O)c2cc([N+](=O)[O-])ccc12', 't'),
  ('O=c1[nH]ncc(Br)c1Br', 't'),
  ('COC(=O)[C@]12CC[C@@H](C)[C@H](C)[C@@H]1C1=CC[C@@H]3[C@@]4(C)C[C@@H](OC(C)=O)[C@H](OC(C)=O)[C@@](C)(COC(C)=O)[C@@H]4[C@H](O)C[C@@]3(C)[C@]1(C)CC2', 'f'),
  ('Cc1csc(Nc2nc(-c3cccc(Br)c3)nc(C(Cl)(Cl)Cl)n2)n1', 'f');

Record request — test call for `COc1cc2c3c(c4c5ccccc5[nH]c4c2c(OC)c1OC)C(=O)N(O)C3=O` f

Status in this test for `Cn1cc(-c2nc(-c3c[nH]c4ncccc34)cs2)c2cc(Cl)ccc21` ? f

Dear all, I need the recorded test outcome for `CC(C)=CCC/C(C)=C/CC/C(C)=C/CSC[C@H](NC(=O)CCCCCN1CCN(C)CC1)C(=O)NC1CCCCCC1` , thank you. f

What classification did `COc1cccc(-c2nn(-c3ccccc3)cc2-c2ccnc(NCCNS(=O)(=O)c3ccc(Cl)cc3)c2)c1` end up with in this test? f

Query: recorded result category for `COC(=O)[C@]12CC[C@@H](C)[C@H](C)[C@@H]1C1=CC[C@@H]3[C@@]4(C)C[C@@H](OC(C)=O)[C@H](O)[C@@](C)(COC(C)=O)[C@@H]4[C@H](O)C[C@@]3(C)[C@]1(C)CC2` in this test t

Record lookup: outcome of this test for `COc1ccc2nc(-c3c(-c4ccccc4)nc4ncccn34)[nH]c2c1` ? f

I'd appreciate the recorded outcome for `Fc1cccc(-c2[nH]nc3nc(Nc4cccnc4)sc23)c1` from this test. f

Please state the recorded outcome for this molecule: `C=C(C)[C@@H]1CC[C@]2(C(=O)OC)CC[C@]3(C)[C@H](CC[C@@H]4[C@@](C)(CC/C(N)=N/O)[C@H](C(=C)C)CC[C@]43C)[C@@H]12` f

Answer briefly: the call reported for `COc1ccc2c(c1)C/C(=C\c1cc(-c3cc(OC)c(OC)c(OC)c3)n[nH]1)C2=O` in this assay. f

// return assay outcome for `O=C(/C(=C(\C(=O)c1ccccc1)c1ccccc1)c1ccccc1)c1ccccc1` f

Fill in: this test's call for `C[C@@H](Oc1ccc(C(=O)NS(=O)(=O)C(C)(C)C)cc1C(F)(F)F)c1ccc(Oc2ccccc2)cn1` is ___ f

* * *

Entries and their growth
- System: UACC-257 melanoma
- assay.details: NCI-60 one-dose screen, 48 h (100 = growth as untreated, 0 = no growth, -100 = all killed)
- conditions.used: 10 µM unless noted
Compounds without any hit were thinned out: in the full panel of roughly 83,000, 20% have a hit.
Supply the numeric figure in %, leaving out any unit text.

INSERT INTO results (compound, metric, endpoint_result) VALUES
  ('C/C(Cc1ccc(Cl)cc1)=C(/c1ccc(Cl)cc1)c1ccc(OCCN2CCCC2)cc1', 'growth', 79.7),
  ('CCCCn1c(-c2ccc(O)cc2)cn2c3c(=O)[nH]c(=O)n(C)c3nc12', 'growth', 79.1),
  ('Cn1cc(-c2csc(-c3cn(CCN)c4ccc(F)cc34)n2)c2cccnc21', 'growth', 100),
  ('Cc1cccc(C)c1NCc1nc(-c2ccccc2)n[nH]1', 'growth', 100),
  ('NCCn1cc(-c2nc(-c3c[nH]c4ncccc34)cs2)c2ccccc21', 'growth', 92.8),
  ('Clc1cc(Cl)cc(Nc2ccc3c(OCCCN4CCOCC4)cccc3n2)c1', 'growth', 73.2),
  ('CC(C)(C)c1cc(-n2c(-c3ccc(Cl)cc3)nc3cc(C(=O)Nc4ccc(Cl)cc4)ccc32)n[nH]1', 'growth', 81.1),
  ('CCC1C(=O)COC1=O (stereo not given)', 'growth', 81.8);

What does the data say about its growth? Entry: `O=C(/C(=C(\C(=O)c1ccccc1)c1ccccc1)c1ccccc1)c1ccccc1` 68.8

* * *

- Test system: LOX IMVI melanoma
- assay.details: NCI-60 one-dose screen, 48 h (100 = growth as untreated, 0 = no growth, -100 = all killed)
- conditions.used: 10 µM unless noted
The panel holds about 83,000 compounds, 20% with a hit somewhere; the sample as a whole holds those more often.
metric: growth (%)
Field: numeric (%). Do not append units.

Record excerpt, results attached:
INSERT INTO assay_data (compound, units_of_measure, endpoint_result) VALUES
  ('Cc1ccc2oc(=O)cc(-c3sc(N4CCCCC4)nc3-c3ccccc3)c2c1', '%', 91.2),
  ('N#CCCCCCn1c2ccccc2c2c3c(c4c5ccccc5n(CCCCCC#N)c4c21)C(=O)N(O)C3=O', '%', 24),
  ('Cc1cc(N(CCCNc2ccnc3cc(Cl)ccc23)Cc2ccco2)nc(N2CCOCC2)n1', '%', 66),
  ('Cc1cc(Nc2ccc(F)cc2)nc(N2CCN(c3ccnc4cc(Cl)ccc34)CC2)n1', '%', 13.1),
  ('COc1ccc(/C=C/C(=O)NCC(C)O)cc1 (configuration not stated)', '%', 97.2);

Fill in the blank: the reported growth of `COc1ccc(-c2nc(Nc3ccc(-c4nc5ccccc5[nH]4)cc3)nc(N3CCOCC3)n2)cc1` is ____. -75.6

growth for `C=C1C(=O)O[C@H]2[C@H]1CC/C(COC(=O)N[C@H](Cc1c[nH]c3ccccc13)C(=O)OC)=C\CC[C@@]1(C)O[C@@H]21` ? 13.7

* * *

- Test system: RXF 393 renal
- assay.details: NCI-60 one-dose screen, 48 h
- conditions.used: 10 µM unless noted
This is part of a sample that, as a whole, favours compounds with a hit. Of some 83,000 tested, about 20% had one in any assay. Active and inactive are the calls of the source. The calls were made as follows: active = growth percent below 10; inactive = the rest.
Your response should consist of one outcome taken from active, inactive

Field: example entries. Status: answers known.
INSERT INTO results (molecule, category) VALUES
  ('CCCCC[C@H]1CC=C2C(=O)C=C[C@@H]2CC=CCCCC(=O)O[C@@H](CCCCC)CC=C2C(=O)C=C[C@@H]2CC=CCCCC(=O)O[C@@H](CCCCC)CC=C2C(=O)C=C[C@@H]2CC=CCCCC(=O)O1', 'active'),
  ('COc1cc(/C=C/c2cc(/C=C/c3ccc(O)c(OC)c3)n(-c3ccc(Cl)cc3)c(=O)n2)ccc1O', 'inactive'),
  ('COC(=O)c1cc(=O)nc(N/N=C/c2ccc(C)cc2)s1', 'inactive'),
  ('N#CC1C(=N)Cc2ccccc2-c2ccccc21 (stereo not drawn)', 'inactive');

Please state the recorded outcome for this molecule: `COc1ccc2c(c1)c(-c1nc(-c3cn(C)c4ncccc34)cs1)cn2CCCN1CCCCC1` inactive

Answer briefly: the call reported for `COc1ccc2c(c1)c(-c1nc(-c3cn(C)c4ncccc34)cs1)cn2CCN` in this assay. inactive

Can you look up the reported call for `CCN1CCN(C(=O)[C@]23CCC(C)(C)C[C@@H]2C2=CC[C@@H]4[C@@]5(C)C/C(=C/c6cccnc6)C(=O)C(C)(C)[C@@H]5CC[C@@]4(C)[C@]2(C)CC3)CC1` for me? active

Hi, do you know how O=C(NC(Cc1cn(Cc2ccccc2)cn1)C(=O)O)OCC1c2ccccc2-c2ccccc21 (stereo not drawn) came out in this test? inactive

* * *

- Tested on: HOP-62 NSCLC
- assay.details: NCI-60 one-dose screen, 48 h (100 = growth as untreated, 0 = no growth, -100 = all killed)
- conditions.used: 10 µM unless noted
Compounds without any hit were thinned out: in the full panel of roughly 83,000, 20% have a hit.
Lab note: anything with growth below 70% is marked label 1; values at 70% or higher are marked label 0.

Reference set, count: 3
INSERT INTO results (compound, category) VALUES
  ('O=[N+]([O-])c1cc(S(=O)(=O)c2ccc(F)c([N+](=O)[O-])c2)ccc1F', 'label 0'),
  ('CN1CCN(CCOc2ccc(-c3cnc4c(-c5cccc(F)c5)cnn4c3)cc2)CC1', 'label 0'),
  ('Brc1ccc(Cn2nnnc2-c2ccn(-c3ccccc3)n2)cc1', 'label 0');

Now for another entry.
I wonder whether COc1ccc(OCC(CO)N2CCN(c3ccccc3)CC2)cc1 (centres undefined) has growth below 70%. Can you tell? label 0
